Reported CC50 values are given for each entry in this list.
- System: TZM
- TEST: Cytotoxicity against human TZM-GFP cells incubated for 72 hrs by XTT assay
- Assay type: cell-based
- COND: tzm, 72 h

CN(C(=O)[C@H](Cc1ccccc1)NC(=O)Cc1c[nH]c2ccccc12)c1cccc(C(F)(F)F)c1 : < 50 µM
Cc1cc(N(C)C(=O)[C@H](Cc2ccccc2)NC(=O)Cc2c(C)[nH]c3ccccc23)n[nH]1 : < 100 µM
CN(C(=O)[C@H](Cc1ccccc1)NC(=O)Cc1c[nH]c2ccccc12)c1cc(F)cc(F)c1 : < 50 µM
CCN(C(=O)[C@H](Cc1ccccc1)NC(=O)Cc1c(C)n(CC)c2ccccc12)c1ccccc1 : 20 µM
CC(C)n1cc(CC(=O)N[C@@H](Cc2ccccc2)C(=O)N(C)c2ccc(F)cc2)c2ccccc21 : 18 µM
Cc1cccc(N(C)C(=O)[C@H](Cc2ccccc2)NC(=O)Cc2c[nH]c3ccccc23)c1 : > 50 µM
CCn1cc(CC(=O)N[C@@H](Cc2ccccc2)C(=O)N(C)c2cccc(Cl)c2)c2ccccc21 : 20 µM
CN(C(=O)[C@H](Cc1ccccc1)NC(=O)Cc1c[nH]c2ccccc12)c1cccc(Br)c1 : < 50 µM
COc1cccc(N(C)C(=O)[C@H](Cc2ccccc2)NC(=O)Cc2c[nH]c3ccccc23)c1 : > 50 µM

Please find the next molecule below.
-- ask Bench note: what CC50 did Cc1[nH]c2ccccc2c1CC(=O)N[C@@H](Cc1ccccc1)C(=O)N(C)c1ccc(F)cc1 show?
-- reply > 50 µM

Each recorded value in this set is attributed to ChEMBL document CHEMBL4765334.
